target: GSK3α (Homo sapiens, UniProt P49840)
Sequence (P49840 whole entry): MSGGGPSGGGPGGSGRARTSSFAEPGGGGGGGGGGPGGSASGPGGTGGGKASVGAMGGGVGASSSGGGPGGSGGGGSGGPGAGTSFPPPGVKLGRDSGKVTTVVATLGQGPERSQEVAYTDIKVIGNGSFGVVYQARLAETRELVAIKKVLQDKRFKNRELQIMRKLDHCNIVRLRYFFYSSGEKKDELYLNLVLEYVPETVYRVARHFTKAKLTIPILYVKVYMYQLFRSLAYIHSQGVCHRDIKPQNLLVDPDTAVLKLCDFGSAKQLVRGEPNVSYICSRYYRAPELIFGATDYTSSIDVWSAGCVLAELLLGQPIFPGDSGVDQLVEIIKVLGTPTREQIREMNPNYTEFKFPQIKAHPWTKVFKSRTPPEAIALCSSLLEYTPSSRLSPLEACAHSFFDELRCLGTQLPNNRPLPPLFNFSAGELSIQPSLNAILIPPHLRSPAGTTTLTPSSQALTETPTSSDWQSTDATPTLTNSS

MOLECULE	UNIT_TAG	IC50
CC(C)(C)Cc1[nH]nc2c1[C@](C)(c1ccccc1)C1=C(CC(C)(C)CC1=O)N2 [BRD3731]	µM	0.215

====

molecular target: GSK3β (Homo sapiens); assay: NanoBRET target engagement in live HEK293 cells, GSK3β; conditions: read-out: GSK3β Kd (NanoBRET), non-permeabilized 293 cells
Sequence (P49841 whole entry): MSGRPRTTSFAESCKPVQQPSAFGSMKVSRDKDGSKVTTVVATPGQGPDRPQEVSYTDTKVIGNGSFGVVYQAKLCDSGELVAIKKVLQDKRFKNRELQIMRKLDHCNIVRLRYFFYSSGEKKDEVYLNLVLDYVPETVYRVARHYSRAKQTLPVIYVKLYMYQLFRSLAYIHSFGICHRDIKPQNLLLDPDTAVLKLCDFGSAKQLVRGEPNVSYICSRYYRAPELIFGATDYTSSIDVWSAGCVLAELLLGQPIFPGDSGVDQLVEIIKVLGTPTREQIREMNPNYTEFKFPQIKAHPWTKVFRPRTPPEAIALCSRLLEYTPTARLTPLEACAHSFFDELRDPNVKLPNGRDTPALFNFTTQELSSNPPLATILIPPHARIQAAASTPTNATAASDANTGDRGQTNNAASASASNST
MEASUREMENT_NAME: Kd (µM)

SMILES_STRUCTURE	ASSAYED_TARGET	MEASUREMENT_NAME	UNIT_TAG	OBSERVED_RESULT
CC(C)(C)Cc1[nH]nc2c1[C@](C)(c1ccccc1)C1=C(CC(C)(C)CC1=O)N2	GSK3β (Homo sapiens)	Kd	µM	3.3
